Hello, the source for this data is ChEMBL document CHEMBL1132053, in case you need it.

tested on: Streptococcus pneumoniae; assay: Antibacterial activity against PRSP; type: functional
attributeMeasured: MIC

These recorded examples may help you get a feel for the data.
• C[C@@H](O)[C@H]1C(=O)N2C(C(=O)[O-])=C(CN3C(=O)c4cccc5cccc(c45)S3(=O)=O)[C@H](C)[C@H]12.[Na+] = 0.25 µg/mL
• CN[C@H](CC(C)C)C(=O)N[C@H]1C(=O)N[C@@H](CC(N)=O)C(=O)N[C@H]2C(=O)N[C@H]3C(=O)N[C@H](C(=O)N[C@H](C(=O)O)c4cc(O)cc(O)c4-c4cc3ccc4O)[C@H](O)c3ccc(c(Cl)c3)Oc3cc2cc(c3O[C@@H]2O[C@H](CO)[C@@H](O)[C@H](O)[C@H]2O[C@H]2C[C@](C)(N)[C@H](O)[C@H](C)O2)Oc2ccc(cc2Cl)[C@H]1O [VANCOMYCIN] = 0.35 µg/mL
• C[C@@H](O)[C@H]1C(=O)N2C(C(=O)[O-])=C(CN3c4cccc5cccc(c45)N(C)S3(=O)=O)[C@H](C)[C@H]12.[Na+] = 1 µg/mL

Which MIC is reported for this molecule? C[C@@H](O)[C@H]1C(=O)N2C(C(=O)[O-])=C(CN3C(=O)c4cccc5cccc(c45)C3=O)[C@H](C)[C@H]12.[Na+]
1.4 µg/mL

Which MIC is reported for this molecule? C[C@@H](O)[C@H]1C(=O)N2C(C(=O)[O-])=C(CN3Cc4cccc5cccc(c45)S3(=O)=O)[C@H](C)[C@H]12.[Na+]
0.12 µg/mL

----------
Here we list compounds with their recorded pIC50 when tested on MecA (Staphylococcus aureus, UniProt Q7DHH4).
Sequence (Q7DHH4 whole entry): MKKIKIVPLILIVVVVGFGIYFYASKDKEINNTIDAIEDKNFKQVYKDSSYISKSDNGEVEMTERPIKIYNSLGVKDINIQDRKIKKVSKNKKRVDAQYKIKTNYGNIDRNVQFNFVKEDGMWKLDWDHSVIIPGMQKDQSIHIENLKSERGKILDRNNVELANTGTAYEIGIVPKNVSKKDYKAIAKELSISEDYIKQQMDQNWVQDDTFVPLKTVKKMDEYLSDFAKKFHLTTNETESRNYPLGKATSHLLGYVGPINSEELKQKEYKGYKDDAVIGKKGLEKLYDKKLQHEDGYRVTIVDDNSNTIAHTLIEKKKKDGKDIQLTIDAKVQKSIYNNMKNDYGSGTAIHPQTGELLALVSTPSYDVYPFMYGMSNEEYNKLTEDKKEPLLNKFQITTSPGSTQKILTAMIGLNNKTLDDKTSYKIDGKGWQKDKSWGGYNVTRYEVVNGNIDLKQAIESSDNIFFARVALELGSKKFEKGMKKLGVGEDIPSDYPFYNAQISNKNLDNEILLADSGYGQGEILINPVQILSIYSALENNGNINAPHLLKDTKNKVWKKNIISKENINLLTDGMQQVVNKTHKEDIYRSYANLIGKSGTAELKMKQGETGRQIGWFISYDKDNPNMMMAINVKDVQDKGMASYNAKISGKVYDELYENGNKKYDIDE
Reminder that pIC50 means the negative base-10 logarithm of the concentration expressed in mol/L.

• C[C@@H](O)[C@H]1C(=O)N2C(C(=O)[O-])=C(CN3C(=O)c4c(ccc5ccccc45)S3(=O)=O)[C@H](C)[C@H]12.[Na+] = 5.48
• C[C@@H](O)[C@H]1C(=O)N2C(C(=O)[O-])=C(CN3Cc4c(ccc5ccccc45)S3(=O)=O)[C@H](C)[C@H]12.[Na+] = 4.42
• C[C@@H](O)[C@H]1C(=O)N2C(C(=O)O)=C(SCCNC=N)C[C@H]12 [IMIPENEM ANHYDROUS] = 3.20
• C[C@@H](O)[C@H]1C(=O)N2C(C(=O)[O-])=C(CN3c4cccc5cccc(c45)N(C)S3(=O)=O)[C@H](C)[C@H]12.[Na+] = 4.83
• C[C@@H](O)[C@H]1C(=O)N2C(C(=O)[O-])=C(CN3C(=O)c4cccc5cccc(c45)C3=O)[C@H](C)[C@H]12.[Na+] = 5.50
• C[C@@H](O)[C@H]1C(=O)N2C(C(=O)[O-])=C(CN3C(=O)c4cccc5cccc(c45)S3(=O)=O)[C@H](C)[C@H]12.[Na+] = 5.30

Could you now consider this next compound?
What is its pIC50 for MecA (Staphylococcus aureus, UniProt Q7DHH4)? Entry: C[C@@H](O)[C@H]1C(=O)N2C(C(=O)[O-])=C(CN3Cc4cccc5cccc(c45)S3(=O)=O)[C@H](C)[C@H]12.[Na+]
4.33

----------
test system: Streptococcus pneumoniae; test: Antibacterial activity against PRSP; type: functional
attributeMeasured: MIC

These recorded examples may help you get a feel for the data.
* C[C@@H](O)[C@H]1C(=O)N2C(C(=O)[O-])=C(CN3C(=O)c4c(ccc5ccccc45)S3(=O)=O)[C@H](C)[C@H]12.[Na+] | 0.25 µg/mL
* C[C@@H](O)[C@H]1C(=O)N2C(C(=O)O)=C(SCCNC=N)C[C@H]12 [IMIPENEM ANHYDROUS] | 0.25 µg/mL
* C[C@@H](O)[C@H]1C(=O)N2C(C(=O)[O-])=C(CN3C(=O)c4cccc5cccc3c45)[C@H](C)[C@H]12.[Na+] | 4 µg/mL

Which MIC is reported for this molecule? C[C@@H](O)[C@H]1C(=O)N2C(C(=O)[O-])=C(CN3Cc4c(ccc5ccccc45)S3(=O)=O)[C@H](C)[C@H]12.[Na+]
0.17 µg/mL
